target: αvβ5 (Homo sapiens, UniProt P06756+P18084); construct: expressed in transfected cells; host or cells: K562; assay: Cell Adhesion Assay K562-αvβ5 (Vitronectin); assay type: cell-based; conditions: K562-αvβ5 cells, ligand Vitronectin, 2 mM MgCl2; read-out: mean affinity (pIC50) αvβ5 (converted)
Sequence (P06756 31-889 limits assumed): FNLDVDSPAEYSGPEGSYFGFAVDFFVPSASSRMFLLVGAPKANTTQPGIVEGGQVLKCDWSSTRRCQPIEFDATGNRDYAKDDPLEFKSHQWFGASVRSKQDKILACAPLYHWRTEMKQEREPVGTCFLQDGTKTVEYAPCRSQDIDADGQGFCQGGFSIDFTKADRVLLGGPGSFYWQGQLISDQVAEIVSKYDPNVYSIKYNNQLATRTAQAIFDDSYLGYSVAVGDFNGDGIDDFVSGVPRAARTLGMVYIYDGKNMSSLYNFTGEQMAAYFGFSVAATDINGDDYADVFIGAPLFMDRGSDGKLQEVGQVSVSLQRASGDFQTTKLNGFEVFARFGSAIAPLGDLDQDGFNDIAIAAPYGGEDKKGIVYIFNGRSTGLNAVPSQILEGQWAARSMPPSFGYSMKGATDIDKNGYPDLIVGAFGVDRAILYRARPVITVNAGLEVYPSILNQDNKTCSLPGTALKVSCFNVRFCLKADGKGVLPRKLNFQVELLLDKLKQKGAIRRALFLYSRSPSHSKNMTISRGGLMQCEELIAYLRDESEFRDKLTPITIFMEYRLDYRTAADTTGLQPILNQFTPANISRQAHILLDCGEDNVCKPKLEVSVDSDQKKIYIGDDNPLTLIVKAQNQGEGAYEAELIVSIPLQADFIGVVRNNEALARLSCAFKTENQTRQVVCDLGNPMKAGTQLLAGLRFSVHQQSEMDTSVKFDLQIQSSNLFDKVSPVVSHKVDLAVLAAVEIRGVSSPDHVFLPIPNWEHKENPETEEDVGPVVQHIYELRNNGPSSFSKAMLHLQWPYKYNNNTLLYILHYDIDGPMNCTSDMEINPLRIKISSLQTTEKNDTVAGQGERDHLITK
Sequence (P06756 891-1048 partner limits assumed): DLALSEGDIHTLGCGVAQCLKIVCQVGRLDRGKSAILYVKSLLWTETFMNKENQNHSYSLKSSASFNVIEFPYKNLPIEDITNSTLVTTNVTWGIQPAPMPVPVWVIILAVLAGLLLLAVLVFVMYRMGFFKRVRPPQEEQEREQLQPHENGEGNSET
Sequence (P18084 24-799): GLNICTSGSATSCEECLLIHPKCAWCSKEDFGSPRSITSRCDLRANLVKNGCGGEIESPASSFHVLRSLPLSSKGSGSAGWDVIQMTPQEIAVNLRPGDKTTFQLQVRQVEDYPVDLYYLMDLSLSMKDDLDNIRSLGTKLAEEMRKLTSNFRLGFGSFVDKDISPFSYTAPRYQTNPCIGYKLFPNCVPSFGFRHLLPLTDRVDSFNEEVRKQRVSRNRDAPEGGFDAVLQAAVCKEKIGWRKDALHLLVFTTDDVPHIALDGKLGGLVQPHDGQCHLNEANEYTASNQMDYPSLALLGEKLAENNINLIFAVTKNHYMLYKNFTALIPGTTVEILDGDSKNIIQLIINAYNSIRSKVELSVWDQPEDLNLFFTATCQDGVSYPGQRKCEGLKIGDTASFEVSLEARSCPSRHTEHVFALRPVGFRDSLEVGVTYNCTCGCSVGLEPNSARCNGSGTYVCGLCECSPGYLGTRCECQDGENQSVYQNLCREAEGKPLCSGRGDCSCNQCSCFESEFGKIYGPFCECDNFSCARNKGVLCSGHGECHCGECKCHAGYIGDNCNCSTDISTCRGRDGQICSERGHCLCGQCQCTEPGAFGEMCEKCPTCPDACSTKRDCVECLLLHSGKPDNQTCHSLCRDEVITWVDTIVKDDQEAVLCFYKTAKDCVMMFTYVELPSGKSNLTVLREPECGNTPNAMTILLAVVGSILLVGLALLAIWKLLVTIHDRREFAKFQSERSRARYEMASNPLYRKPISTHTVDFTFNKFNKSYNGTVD
MEASURE: IC50 (nM)

Cc1cc(CO)nn1-c1cccc(C(CC(=O)O)CN2CC[C@@H](CCc3ccc4c(n3)NCCC4)C2)c1 (single isomer, unassigned) [Example 10] : 158
Cc1cc(CF)nn1-c1cccc(C(CC(=O)O)CN2CC[C@@H](CCc3ccc4c(n3)NCCC4)C2)c1 (stereo partly shown) [Example 11] : 158

a: Cc1cc(C(C)(C)O)nn1-c1cccc(C(CC(=O)O)CN2CC[C@@H](CCc3ccc4c(n3)NCCC4)C2)c1 (single isomer, unassigned) [Example 6]
b: O=C(O)CC(CN1CC[C@@H](CCc2ccc3c(n2)NCCC3)C1)c1cccc(-n2ccc(C(F)(F)F)n2)c1 (stereo partly shown) [Example 7]
So which one has the bigger IC50 here, a or b ? Let me know the label of the one you choose.
a
(a: 200 nM, b: 50.1 nM)
